Measured on: T1, biotinylated ADDL (bADDL) (UniProt P05067 672-713, N-terminal biotin)
T1 construct: domain: Aβ1-42; Panning and ELISA speak of 10% biotinylated ADDL; also called bADDLs; high molecular weight bADDL
Measurement protocol: BIACORE, bADDL as antigen; Fab
Assay endpoint: pKd
Value format note: pKd is -log10 of concentration (mol/L); just state the number.

Fill blank: measured pKd of the binder 20C2-1A Fab (Fab, V domains shown) VH: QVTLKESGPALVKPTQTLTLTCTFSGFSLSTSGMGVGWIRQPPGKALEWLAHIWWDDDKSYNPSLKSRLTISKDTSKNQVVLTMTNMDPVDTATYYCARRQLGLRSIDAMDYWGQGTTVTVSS VL: DVVMTQSPLSLPVTPGEPASISCRSSQSILHSNGNTYLEWYLQKPGQSPQLLIYKVSNRFSGVPDRFSGSGSGTDFTLKISRVEAEDVGVYYCFQASRVPLTFGQGTKLEIKR is ____.
7.07
